Reference for the values: patent US4314055A

tested on: Sprague-Dawley (Carworth) rats; assay: Intracisternal Toxicity in Rats; type: in vivo, rat (Sprague-Dawley; conditions: two day observation
LD50 Value Intracisternal (Rats) for assorted compounds
Give just the numeric value; mg. I/kg. body wt. need not be written.

| Smiles Notation | Target Under Test | Unit Abbrev | LD50 Value Intracisternal (Rats) |
| --- | --- | --- | --- |
| CNC(=O)c1c(I)c(NC(=O)[C@H](O)[C@@H](O)[C@H](O)[C@H](O)CO)c(I)c(C(=O)N(C)C)c1I | Sprague-Dawley (Carworth) rats | mg. I/kg. body wt. | 100 |

Here is the next item to consider.
Input line: Using the record for `CNC(=O)c1c(I)c(NC(C)=O)c(I)c(NC(=O)[C@H](O)[C@@H](O)[C@H](O)[C@H](O)CO)c1I` , report its LD50 Value Intracisternal (Rats).
Output line: 180

====

test: water solubility; format: physicochemical; conditions: water; read-out: water solubility
solubility for assorted compounds
Give just the numeric value; mg/mL need not be written.

Reference set (4 entries):
| Smiles Notation | solubility / mg/mL |
| --- | --- |
| CNC(=O)c1c(I)c(NC(=O)[C@H](O)[C@@H](O)[C@H](O)[C@H](O)CO)c(I)c(C(=O)N(C)C)c1I | 284 |
| CNC(=O)c1c(I)c(NC(C)=O)c(I)c(NC(=O)[C@H](O)[C@@H](O)[C@H](O)[C@H](O)CO)c1I | 86 |
| CNC(=O)c1c(I)c(NC(=O)C(=O)[C@@H](O)[C@H](O)[C@@H](O)CO)c(I)c(C(=O)N(C)C)c1I | 37.5 |
| CNC(=O)c1c(I)c(NC(=O)[C@H](O)[C@@H](O)[C@H](O)[C@H](O)CO)c(I)c(C(=O)NC)c1I | 12 |

Here is the next item to consider.
Input line: Using the record for `CNC(=O)c1c(I)c(CO)c(I)c(NC(=O)[C@H](O)[C@@H](O)[C@H](O)[C@H](O)CO)c1I` , report its solubility.
Output line: 18.6

====

tested on: Sprague-Dawley (Carworth) rats; test: Intracisternal Toxicity in Rats; type: in vivo, rat (Sprague-Dawley; conditions: two day observation
Measurement Type: LD50 Value Intracisternal (Rats)

Reference set (2 entries):
| Smiles Notation | Target Under Test | LD50 Value Intracisternal (Rats) |
| --- | --- | --- |
| CNC(=O)c1c(I)c(C(=O)N(C)C)c(I)c(N(C)C(=O)[C@@H](O)[C@H](O)[C@H](O)[C@@H](O)C=O)c1I | Sprague-Dawley (Carworth) rats | 28 mg. I/kg. body wt. |
| CNC(=O)c1c(I)c(NC(=O)[C@H](O)[C@@H](O)[C@H](O)[C@H](O)CO)c(I)c(NC(=O)[C@H](O)[C@@H](O)[C@H](O)[C@H](O)CO)c1I | Sprague-Dawley (Carworth) rats | > 560 mg. I/kg. body wt. |

Input line: Using the record for `CNC(=O)c1c(I)c(NC(=O)[C@H](O)[C@@H](O)[C@H](O)[C@H](O)CO)c(I)c(N(C)C(C)=O)c1I` , report its LD50 Value Intracisternal (Rats).
Output line: 75 mg. I/kg. body wt.

====

assay: water solubility; format: physicochemical; details: water; after 21 days
Measurement Type: solubility at 504 h (mg/mL)
Give just the numeric value; mg/mL need not be written.

Input line: Using the record for `CNC(=O)c1c(I)c(NC(=O)C(=O)[C@@H](O)[C@H](O)[C@@H](O)CO)c(I)c(N(CCO)C(C)=O)c1I` , report its solubility at 504 h.
Output line: 640

====

assay: water solubility; assay type: physicochemical; conditions: water; printed as slightly less than; read-out: aqueous solubility
Measurement Type: solubility

Input line: Using the record for CNC(=O)c1c(I)c(NC(=O)[C@H](O)[C@@H](O)[C@H](O)[C@H](O)CO)c(I)c(N(CCO)C(C)=O)c1I [Examples VIII and IX] , report its solubility.
Output line: < 1000 mg/mL

====

experiment: water solubility; type: physicochemical; conditions: water; after 24 hr.; read-out: aqueous solubility after 24 hr.
Measurement Type: solubility at 24 h

Input line: Using the record for `CNC(=O)c1c(I)c(NC(=O)[C@H](O)[C@@H](O)[C@H](O)[C@H](O)CO)c(I)c(NC(=O)[C@H](O)[C@@H](O)[C@H](O)[C@H](O)CO)c1I` , report its solubility at 24 h.
Output line: < 150 mg/mL

====

LD50 Value I.V. (Mice) for assorted molecules
System: Swiss Albino mice
Assay: Acute Intravenous Toxicity Studies in Mice
Format: in vivo, mouse (Swiss Albino, Charles River)
Conditions: iodine concentration 28.2%, pH 7.0-7.2, approx. 1 ml./min., seven-day observation
Experimental: Toxicity evaluations in accordance with three different techniques were carried out on aqueous solutions of the compounds of Examples I, II, IV, V, VI, VIII, IX, X, XI and XII. The techniques utilized are described below. 1. Acute Intravenous Toxicity Studies in Mice Except as noted below, Swiss Albino mice (Charles River) were dosed in the lateral tail vein with solutions of the above-noted iodinated compounds having an iodine concentration of 28.2% with a pH of 7.0-7.2. […]

Reference set (4 entries):
| Molecule | Result |
| --- | --- |
| CNC(=O)c1c(I)c(NC(=O)[C@H](O)[C@@H](O)[C@H](O)[C@H](O)CO)c(I)c(N(C)C(C)=O)c1I [Example IV] | 6,400 mg. I/kg. body wt. |
| CNC(=O)c1c(I)c(NC(=O)[C@H](O)[C@@H](O)[C@H](O)[C@H](O)CO)c(I)c(NC(=O)[C@H](O)[C@@H](O)[C@H](O)[C@H](O)CO)c1I [Examples XI and XII] | 20,500 mg. I/kg. body wt. |
| CNC(=O)c1c(I)c(NC(=O)[C@H](O)[C@@H](O)[C@H](O)[C@H](O)CO)c(I)c(N(CCO)C(C)=O)c1I [Examples VIII and IX] | > 13,000 mg. I/kg. body wt. |
| CNC(=O)c1c(I)c(C(=O)N(C)C)c(I)c(N(C)C(=O)[C@@H](O)[C@H](O)[C@H](O)[C@@H](O)C=O)c1I [Example V] | 1,700 mg. I/kg. body wt. |

Here is the next item to consider.
Input line: Using the record for CNC(=O)c1c(I)c(NC(=O)C(=O)[C@@H](O)[C@H](O)[C@@H](O)CO)c(I)c(N(CCO)C(C)=O)c1I [Example X] , report its LD50 Value I.V. (Mice).
Output line: ~ 10,500 mg. I/kg. body wt.

====

assay: water solubility; format: physicochemical; conditions: water; 15% w/v solution seeded, stirred at room temperature, filtered, filtrate aliquot evaporated to constant weight at 85° C.
Measurement Type: solubility thermodynamic
// unit must come after the numeric part

Input line: Using the record for CNC(=O)c1c(I)c(NC(=O)[C@H](O)[C@@H](O)[C@H](O)[C@H](O)CO)c(I)c(NC(=O)[C@H](O)[C@@H](O)[C@H](O)[C@H](O)CO)c1I [Examples XI and XII] , report its solubility thermodynamic.
Output line: 120 mg/mL
